Record form. Attribute: protein stability index. Fill in for each entry.
B1: TMEM106C (parent)
chain: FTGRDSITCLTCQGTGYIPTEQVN

Variants of: B1
ASSAY REMARKS: protein stability index of a GFP-peptide fusion (GPS, HEK-293T) (PSI 1-6); higher = more stable;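 also: lentivirally expressed fusions sorted by FACS into six bins by GFP to DsRed ratio, PSI derived from sequencing read proportions per bin multiplied by bin number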
APPLIED CONDITIONS: c terminus: a fixed tail appended
Number only, no unit.

// recorded protein stability index for E21R : 2.03

// recorded protein stability index for T2N : 3.32

// recorded protein stability index for E21V : 2.59

// recorded protein stability index for N24W : 3.36

// recorded protein stability index for T11W : 2.97

// recorded protein stability index for T15Y : 2.52

// recorded protein stability index for T15Q : 1.53

// recorded protein stability index for T15D : 1.81

// recorded protein stability index for C9H : 1.73

// recorded protein stability index for R4H : 1.98

// recorded protein stability index for R4K : 2.12

// recorded protein stability index for S6G : 1.9

// recorded protein stability index for I18Y : 1.68

// recorded protein stability index for G14S : 1.58

// recorded protein stability index for V23D : 1.54

// recorded protein stability index for C12Y : 2.06

// recorded protein stability index for N24I : 1.44

// recorded protein stability index for T20K : 1.92

// recorded protein stability index for G16D : 1.56

// recorded protein stability index for T8M : 2.4

// recorded protein stability index for T11R : 1.97

// recorded protein stability index for S6D : 2.58
